experiment: Relative lipophilicity of the compound in methanol assessed as retardation factor by reversed-phase TLC analysis
Format: physicochemical
Entry flag: T if Rm reaches 3; F if it does not.

Query: Could you verify whether the entry CCOc1nc2c(c(=O)n(C)c(=O)n2C)n1CC(=O)Nc1ccc(C(C)C)cc1 shows Rm of no less than 3?
Reply: T

Query: Given the entry COc1nc2c(c(=O)n(C)c(=O)n2C)n1CCCC(=O)Nc1ccc(C(C)(C)C)cc1 , answer whether its Rm meets or surpasses 3.
Reply: T

Query: Assess whether reported Rm for O=c1n(CCCN2CCN(c3cccc(Cl)c3)CC2)nc2ccccn12 sits at 3 or higher.
Reply: F

Query: Test whether the compound CCCOc1nc2c(c(=O)n(C)c(=O)n2C)n1CCCC(=O)Nc1ccc(C(C)CC)cc1 (stereo unspecified) records Rm of 3 or higher.
Reply: T

Query: Check this compound for Rm at or above 3: COc1ccc(Cc2nccc3cc(OC)c(OC)cc23)cc1OC
Reply: F

Query: Hi, just wondering whether Cn1cnc2c1c(=O)[nH]c(=O)n2C shows Rm of 3 or higher.
Reply: F

Query: Can CCOc1nc2c(c(=O)n(C)c(=O)n2C)n1CCCC(=O)Nc1ccc(C(C)(C)C)cc1 be said to have Rm at or above 3?
Reply: T

Query: Could you verify whether the entry CCOc1nc2c(c(=O)n(C)c(=O)n2C)n1CCCC(=O)Nc1ccc(C(C)C)cc1 shows Rm of no less than 3?
Reply: T

Query: Say whether COc1nc2c(c(=O)n(C)c(=O)n2C)n1CC(=O)Nc1ccc(C(C)(C)C)cc1 shows Rm of 3 or more.
Reply: T

Query: // inclusive: Rm at least 3? input: C[C@]12C=CC(=O)C=C1CC[C@@H]1[C@@H]2[C@@H](O)C[C@@]2(C)[C@H]1CC[C@]2(O)C(=O)CO
Reply: F

Query: Decide: is the reported value of Rm for CCCCOc1nc2c(c(=O)n(C)c(=O)n2C)n1CCCC(=O)Nc1ccc(C(C)CC)cc1 (stereo unspecified) equal to or greater than 3?
Reply: T

Query: Form field: Rm at least 3? Entry: CCCOc1nc2c(c(=O)n(C)c(=O)n2C)n1CCCC(=O)Nc1ccc(C(C)C)cc1
Reply: T

Query: // inclusive: Rm at least 3? input: CCC1(CC)C(=O)NC(=O)NC1=O
Reply: F

Query: Does Rm meet or surpass 3 for CCCOc1nc2c(c(=O)n(C)c(=O)n2C)n1CCCC(=O)Nc1ccc(C(C)(C)C)cc1 ?
Reply: T

Query: Has O=C(CCCN1CCC(O)(c2ccc(Cl)cc2)CC1)c1ccc(F)cc1 a recorded Rm greater than or equal to 3?
Reply: T

Query: Test whether the compound CC(=O)Nc1ccc(O)cc1 records Rm of 3 or higher.
Reply: F

----------
experiment: Lipophilicity, logP of compound by shake flask method
Type: physicochemical
measurementSetup: octanol/water
endpointName: logP

Query: Read off the recorded logP for COc1ccc(Cc2nccc3cc(OC)c(OC)cc23)cc1OC [PAPAVERINE]
Reply: 3

----------
experiment: Relative lipophilicity of the compound in methanol assessed as retardation factor by reversed-phase TLC analysis
Assay type: physicochemical
# binning rule on Rm: band 1 (below 2), band 2 (2 to below 4), band 3 (4 or more)

Query: For COc1nc2c(c(=O)n(C)c(=O)n2C)n1CC(=O)Nc1ccc(C(C)C)cc1 , which Rm bin applies?
Reply: band 2

Query: For CCN(CC)CC(=O)Nc1c(C)cccc1C , which Rm bin applies?
Reply: band 1

Query: Bin? COc1nc2c(c(=O)n(C)c(=O)n2C)n1CCCC(=O)Nc1ccc(C(C)C)cc1
Reply: band 2

Query: Note: place this molecule into its band. Item: CCCOc1nc2c(c(=O)n(C)c(=O)n2C)n1CCCC(=O)Nc1cc(C(C)CC)ccc1O (stereo not given)
Reply: band 3

Query: The entry to classify is Cn1c(=O)c2[nH]cnc2n(C)c1=O.O ; which class holds it?
Reply: band 1

Query: Which category fits this record: O=C1NC(=O)C(c2ccccc2)(c2ccccc2)N1
Reply: band 2

Query: Which bin should I file CCCCOc1nc2c(c(=O)n(C)c(=O)n2C)n1CCCC(=O)Nc1cc(C(C)CC)ccc1O (stereo not given) under?
Reply: band 3

Query: For CCOC(=O)c1ccc(N)cc1 , which Rm bin applies?
Reply: band 1

Query: Place this molecule in its band: CCC1(c2ccccc2)C(=O)NC(=O)NC1=O
Reply: band 1
